assayed_target: InsR (Homo sapiens)
Sequence (P06213 28-1382, species assumed): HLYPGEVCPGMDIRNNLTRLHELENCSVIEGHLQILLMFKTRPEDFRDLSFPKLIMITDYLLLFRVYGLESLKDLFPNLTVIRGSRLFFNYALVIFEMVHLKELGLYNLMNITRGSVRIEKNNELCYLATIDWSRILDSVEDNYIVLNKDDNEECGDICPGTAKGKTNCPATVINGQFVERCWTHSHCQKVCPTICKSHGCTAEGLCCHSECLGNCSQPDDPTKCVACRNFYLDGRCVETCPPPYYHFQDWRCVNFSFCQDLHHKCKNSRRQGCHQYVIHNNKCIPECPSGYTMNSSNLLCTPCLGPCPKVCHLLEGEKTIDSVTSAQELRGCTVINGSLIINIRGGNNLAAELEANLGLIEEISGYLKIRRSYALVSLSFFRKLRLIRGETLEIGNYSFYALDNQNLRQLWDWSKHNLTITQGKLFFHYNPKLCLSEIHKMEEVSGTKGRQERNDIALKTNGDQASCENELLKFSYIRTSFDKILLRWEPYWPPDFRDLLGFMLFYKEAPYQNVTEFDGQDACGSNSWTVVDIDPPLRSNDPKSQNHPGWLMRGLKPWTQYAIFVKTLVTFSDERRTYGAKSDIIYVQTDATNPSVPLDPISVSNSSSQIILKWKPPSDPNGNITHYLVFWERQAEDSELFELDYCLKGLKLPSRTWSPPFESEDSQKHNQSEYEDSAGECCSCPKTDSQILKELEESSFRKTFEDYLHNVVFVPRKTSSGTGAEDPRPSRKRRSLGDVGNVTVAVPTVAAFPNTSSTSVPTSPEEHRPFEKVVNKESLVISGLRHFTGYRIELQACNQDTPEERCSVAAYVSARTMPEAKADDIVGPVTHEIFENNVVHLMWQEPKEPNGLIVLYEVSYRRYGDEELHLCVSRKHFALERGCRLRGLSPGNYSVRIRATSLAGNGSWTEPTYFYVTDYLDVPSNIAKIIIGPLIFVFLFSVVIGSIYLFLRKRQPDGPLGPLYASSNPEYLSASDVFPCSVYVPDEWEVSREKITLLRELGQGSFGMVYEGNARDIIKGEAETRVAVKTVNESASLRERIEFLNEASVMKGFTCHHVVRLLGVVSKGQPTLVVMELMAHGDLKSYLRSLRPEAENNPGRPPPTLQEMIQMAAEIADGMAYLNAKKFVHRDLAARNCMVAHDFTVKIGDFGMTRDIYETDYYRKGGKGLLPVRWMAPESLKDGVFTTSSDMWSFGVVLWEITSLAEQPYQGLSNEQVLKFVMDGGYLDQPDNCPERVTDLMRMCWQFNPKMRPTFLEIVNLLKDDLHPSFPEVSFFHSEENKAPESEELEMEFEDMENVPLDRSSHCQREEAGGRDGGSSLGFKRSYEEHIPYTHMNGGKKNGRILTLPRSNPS
assay_protocol: Enzymatic kinase assay (filter-binding/flashplate)
Assay type: biochemical
experimental_parameters: enzymatic; read-out: InsR IC50 values
Method: Two methods were used to analyze phosphorylated peptides and proteins produced by the listed tyrosine and serine/threonine-specific protein kinases: either using a filter-binding assay (FB), or using a flashplate assay (FP). The activities of protein kinases were assayed in the presence or absence of inhibitors, by measuring the incorporation of ^33P from [γ^33P]ATP into appropriate substrates. 96-well polypropylene microplates were used to assay the activity in the FB mode. […]

# molecule, assayed_target, IC50
rows = [
    ("Nc1ncnc2c1c(-c1cccc(OC[C@@H]3CCCO3)c1F)cn2C1CC2(CNC(=O)O2)C1 (stereo partly drawn) [Example 4]", "InsR (Homo sapiens)", "250 nM"),
    ("[2H]C1([2H])C([2H])([2H])C2(COc3cccc(-c4cn([C@H]5C[C@](O)(CO)C5)c5ncnc(N)c45)c3F)OC1([2H])C([2H])([2H])C2([2H])[2H] [Example 27]", "InsR (Homo sapiens)", "130 nM"),
    ("Nc1ncnc2c1c(-c1cc(OC[C@@H]3CCCO3)ccc1F)cn2[C@H]1C[C@@H](N2CCN(C(=O)CO)CC2)C1 [Example 40]", "InsR (Homo sapiens)", "270 nM"),
    ("Nc1ncnc2c1c(-c1cccc(OCC3CCCO3)c1F)cn2[C@H]1C[C@@H](CN2CCS(=O)(=O)CC2)C1 (mixture of isomers) [Example 1]", "InsR (Homo sapiens)", "38 nM"),
    ("CC(=O)N1CCN([C@H]2C[C@H](n3cc(-c4cc(OC[C@@H]5CCCO5)ccc4F)c4c(N)ncnc43)C2)CC1 [Example 36]", "InsR (Homo sapiens)", "1300 nM"),
    ("[2H]C1([2H])C([2H])([2H])C2(COc3ccc(F)c(-c4cn([C@H]5C[C@@H](N6CCN(C(C)=O)CC6)C5)c5ncnc(N)c45)c3)OC1([2H])C([2H])([2H])C2([2H])[2H] [Example 10]", "InsR (Homo sapiens)", "81 nM"),
]

----------
assayed_target: IGF1R (Homo sapiens, UniProt P08069)
Sequence (P08069 31-1367): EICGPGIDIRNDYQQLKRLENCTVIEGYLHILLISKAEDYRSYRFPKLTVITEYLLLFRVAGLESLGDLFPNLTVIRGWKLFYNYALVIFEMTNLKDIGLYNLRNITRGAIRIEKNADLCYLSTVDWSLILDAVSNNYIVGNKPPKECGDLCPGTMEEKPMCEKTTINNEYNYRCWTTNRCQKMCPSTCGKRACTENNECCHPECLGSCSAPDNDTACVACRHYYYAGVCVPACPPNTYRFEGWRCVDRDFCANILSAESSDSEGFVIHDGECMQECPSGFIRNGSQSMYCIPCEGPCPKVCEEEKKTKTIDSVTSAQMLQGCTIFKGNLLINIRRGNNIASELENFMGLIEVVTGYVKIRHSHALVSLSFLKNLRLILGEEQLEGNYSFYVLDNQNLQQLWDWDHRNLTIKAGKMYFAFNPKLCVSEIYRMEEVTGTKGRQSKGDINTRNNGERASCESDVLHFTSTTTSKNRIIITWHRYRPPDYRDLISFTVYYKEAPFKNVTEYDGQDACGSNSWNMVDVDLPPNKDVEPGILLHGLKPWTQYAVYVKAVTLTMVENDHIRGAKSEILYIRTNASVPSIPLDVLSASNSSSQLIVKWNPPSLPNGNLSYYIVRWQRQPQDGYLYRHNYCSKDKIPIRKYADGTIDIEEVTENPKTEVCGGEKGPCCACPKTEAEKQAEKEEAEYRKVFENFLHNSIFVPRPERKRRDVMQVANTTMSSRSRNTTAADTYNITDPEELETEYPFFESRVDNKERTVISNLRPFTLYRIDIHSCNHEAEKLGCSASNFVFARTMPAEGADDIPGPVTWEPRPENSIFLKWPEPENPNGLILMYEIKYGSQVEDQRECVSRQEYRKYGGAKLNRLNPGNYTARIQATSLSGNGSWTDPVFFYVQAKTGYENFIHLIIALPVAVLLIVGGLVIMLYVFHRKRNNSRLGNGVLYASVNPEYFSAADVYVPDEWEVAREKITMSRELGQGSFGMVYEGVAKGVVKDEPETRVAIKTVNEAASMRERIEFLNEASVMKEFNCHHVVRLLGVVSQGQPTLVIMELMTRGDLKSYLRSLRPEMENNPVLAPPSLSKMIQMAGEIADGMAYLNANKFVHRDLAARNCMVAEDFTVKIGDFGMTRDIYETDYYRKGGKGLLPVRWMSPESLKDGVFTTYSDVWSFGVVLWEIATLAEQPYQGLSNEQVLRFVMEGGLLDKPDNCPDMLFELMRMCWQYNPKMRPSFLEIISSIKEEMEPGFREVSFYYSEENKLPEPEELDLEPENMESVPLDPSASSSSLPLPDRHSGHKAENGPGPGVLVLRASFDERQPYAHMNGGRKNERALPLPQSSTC
assay_protocol: Cellular IGF-1R assay: inhibition of IGF1R phosphorylation in Hek293 cells, capture ELISA (MSD)
Format: cell-based
Set-up: expressed in transfected cells; host or cells: Hek293 (Hek293-IGF1R)
experimental_parameters: IGF-triggered receptor phosphorylation

# compound, assayed_target, IC50 / µM
data = [
    ("Nc1ncnc2c1c(-c1cccc(OC[C@@H]3CCCO3)c1F)cn2C1CC2(CNC(=O)O2)C1 (stereo partly drawn)", "IGF1R (Homo sapiens, UniProt P08069)", 0.017),
    ("Nc1ncnc2c1c(-c1ccc(F)c(OCC34CCC(CC3)O4)c1)cn2[C@H]1C[C@@](O)(CO)C1", "IGF1R (Homo sapiens, UniProt P08069)", 0.461),
    ("[2H]C1([2H])C([2H])([2H])C2(COc3cccc(-c4cn([C@H]5C[C@@H](N6CC[S+]([O-])CC6)C5)c5ncnc(N)c45)c3F)OC1([2H])C([2H])([2H])C2([2H])[2H]", "IGF1R (Homo sapiens, UniProt P08069)", 0.004),
    ("CC(=O)N1CCN([C@H]2C[C@@H](n3cc(-c4cccc(OC[C@@H]5CCCO5)c4F)c4c(N)ncnc43)C2)CC1", "IGF1R (Homo sapiens, UniProt P08069)", 0.016),
    ("Nc1ncnc2c1c(-c1cccc(OC[C@H]3CCCO3)c1F)cn2[C@H]1C[C@@H](N2CC[S+]([O-])CC2)C1", "IGF1R (Homo sapiens, UniProt P08069)", 0.042),
    ("Nc1ncnc2c1c(-c1cccc(OC[C@@H]3CCCO3)c1F)cn2[C@H]1C[C@@H](N2CC[S+]([O-])CC2)C1", "IGF1R (Homo sapiens, UniProt P08069)", 0.025),
    ("Nc1ncnc2c1c(-c1cccc(OC[C@H]3CCCO3)c1F)cn2[C@H]1C[C@@H](CN2CC[S+]([O-])CC2)C1", "IGF1R (Homo sapiens, UniProt P08069)", 0.016),
    ("Nc1ncnc2c1c(-c1cc(OC[C@@H]3CCCO3)ccc1F)cn2C1CC(CN2CCS(=O)(=O)CC2)C1 (stereo partly drawn)", "IGF1R (Homo sapiens, UniProt P08069)", 0.198),
    ("Nc1ncnc2c1c(-c1cc(OC[C@@H]3CCCO3)ccc1F)cn2C1CC2(CNC(=O)O2)C1 (stereo partly drawn) [Example 14]", "IGF1R (Homo sapiens, UniProt P08069)", 0.052),
    ("Nc1ncnc2c1c(-c1cc(OCC3CCCO3)ccc1F)cn2[C@H]1C[C@@H](CN2C[C@@H]3C[C@H]2CS3(=O)=O)C1 (stereo partly drawn)", "IGF1R (Homo sapiens, UniProt P08069)", 0.031),
    ("Nc1ncnc2c1c(-c1cc(OC[C@@H]3CCCO3)ccc1F)cn2C1CC2(CNC(=O)O2)C1 (single isomer, unassigned) [Example 21]", "IGF1R (Homo sapiens, UniProt P08069)", 0.215),
    ("CN1CCN(C[C@H]2C[C@@H](n3cc(-c4ccc(F)c(OCC56CCC(CC5)O6)c4)c4c(N)ncnc43)C2)CC1=O (relative stereo)", "IGF1R (Homo sapiens, UniProt P08069)", 0.11),
    ("Nc1ncnc2c1c(-c1ccc(F)c(OCC34CCC(CC3)O4)c1)cn2[C@H]1C[C@@H](CN2C[C@@H]3C[C@H]2CS3(=O)=O)C1", "IGF1R (Homo sapiens, UniProt P08069)", 0.022),
    ("Nc1ncnc2c1c(-c1cccc(OC[C@@H]3CCCO3)c1F)cn2[C@H]1C[C@@H](CN2CC[S+]([O-])CC2)C1", "IGF1R (Homo sapiens, UniProt P08069)", 0.01),
    ("CC(=O)N1CCN([C@H]2C[C@@H](n3cc(-c4cc(OC[C@H]5CCCO5)ccc4F)c4c(N)ncnc43)C2)CC1", "IGF1R (Homo sapiens, UniProt P08069)", 0.159),
    ("Nc1ncnc2c1c(-c1cc(OCC3CCCO3)ccc1F)cn2[C@H]1C[C@@H](CN2CCS(=O)(=O)CC2)C1 (mixture of isomers)", "IGF1R (Homo sapiens, UniProt P08069)", 0.019),
    ("[2H]C1([2H])C([2H])([2H])C2(COc3ccc(F)c(-c4cn([C@H]5C[C@@H](N6CC[S+]([O-])CC6)C5)c5ncnc(N)c45)c3)OC1([2H])C([2H])([2H])C2([2H])[2H]", "IGF1R (Homo sapiens, UniProt P08069)", 0.01),
    ("CC(=O)N1CCN([C@H]2C[C@@H](n3cc(-c4cc(OC[C@@H]5CCCO5)ccc4F)c4c(N)ncnc43)C2)CC1", "IGF1R (Homo sapiens, UniProt P08069)", 0.013),
]

----------
assayed_target: HER2 (Homo sapiens, UniProt P04626)
Sequence (P04626 23-1255, species assumed): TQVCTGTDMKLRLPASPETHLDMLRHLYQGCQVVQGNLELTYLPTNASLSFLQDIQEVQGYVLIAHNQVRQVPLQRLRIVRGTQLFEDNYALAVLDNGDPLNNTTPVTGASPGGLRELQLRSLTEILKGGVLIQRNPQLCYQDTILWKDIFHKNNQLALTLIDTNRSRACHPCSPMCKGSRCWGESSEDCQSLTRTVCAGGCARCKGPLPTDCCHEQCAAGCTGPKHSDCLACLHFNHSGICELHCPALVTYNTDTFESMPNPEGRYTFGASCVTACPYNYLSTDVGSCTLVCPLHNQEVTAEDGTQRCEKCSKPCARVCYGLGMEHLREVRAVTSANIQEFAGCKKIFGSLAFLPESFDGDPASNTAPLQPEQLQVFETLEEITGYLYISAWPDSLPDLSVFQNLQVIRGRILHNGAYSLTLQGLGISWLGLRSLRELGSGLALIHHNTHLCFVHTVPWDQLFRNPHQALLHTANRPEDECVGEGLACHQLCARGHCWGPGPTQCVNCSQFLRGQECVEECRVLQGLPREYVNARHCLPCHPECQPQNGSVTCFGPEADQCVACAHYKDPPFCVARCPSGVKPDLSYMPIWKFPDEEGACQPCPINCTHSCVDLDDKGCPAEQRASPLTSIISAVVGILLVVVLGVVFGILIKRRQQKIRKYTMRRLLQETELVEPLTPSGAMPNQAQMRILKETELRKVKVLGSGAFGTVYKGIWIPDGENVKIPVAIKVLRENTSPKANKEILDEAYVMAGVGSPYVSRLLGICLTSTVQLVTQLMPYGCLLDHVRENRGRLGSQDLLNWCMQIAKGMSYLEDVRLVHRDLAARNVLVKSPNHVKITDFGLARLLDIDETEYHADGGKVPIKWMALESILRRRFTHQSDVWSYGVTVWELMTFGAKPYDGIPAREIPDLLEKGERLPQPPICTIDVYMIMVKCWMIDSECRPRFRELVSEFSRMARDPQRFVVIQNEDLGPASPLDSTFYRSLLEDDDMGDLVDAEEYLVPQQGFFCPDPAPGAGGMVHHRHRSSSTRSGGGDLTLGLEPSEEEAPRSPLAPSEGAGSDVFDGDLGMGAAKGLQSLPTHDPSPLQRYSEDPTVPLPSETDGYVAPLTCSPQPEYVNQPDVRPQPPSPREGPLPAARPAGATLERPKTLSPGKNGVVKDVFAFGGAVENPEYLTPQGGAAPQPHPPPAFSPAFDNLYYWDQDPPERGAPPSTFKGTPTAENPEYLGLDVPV
pIC50: −log10 of the molar value.
Below: a set of entries, each annotated with reported pIC50.
parameter: pIC50

# compound, assayed_target, result
measured = [
    ("Nc1ncnc2c1c(-c1cc(OCC34CCC(CC3)O4)ccc1F)cn2[C@H]1C[C@@H](N2CC[S+]([O-])CC2)C1 (relative stereo) [Example 34]", "HER2 (Homo sapiens, UniProt P04626)", "< 5.00"),
    ("Nc1ncnc2c1c(-c1cccc(OC[C@@H]3CCCO3)c1F)cn2C1CC2(CNC(=O)O2)C1 (stereo partly drawn) [Example 4]", "HER2 (Homo sapiens, UniProt P04626)", "< 5.00"),
    ("[2H]C1([2H])C([2H])([2H])C2(COc3cccc(-c4cn([C@H]5C[C@](O)(CO)C5)c5ncnc(N)c45)c3F)OC1([2H])C([2H])([2H])C2([2H])[2H] [Example 27]", "HER2 (Homo sapiens, UniProt P04626)", "< 5.00"),
]

----------
assayed_target: UniProt Q12809
Sequence (Q12809 whole entry): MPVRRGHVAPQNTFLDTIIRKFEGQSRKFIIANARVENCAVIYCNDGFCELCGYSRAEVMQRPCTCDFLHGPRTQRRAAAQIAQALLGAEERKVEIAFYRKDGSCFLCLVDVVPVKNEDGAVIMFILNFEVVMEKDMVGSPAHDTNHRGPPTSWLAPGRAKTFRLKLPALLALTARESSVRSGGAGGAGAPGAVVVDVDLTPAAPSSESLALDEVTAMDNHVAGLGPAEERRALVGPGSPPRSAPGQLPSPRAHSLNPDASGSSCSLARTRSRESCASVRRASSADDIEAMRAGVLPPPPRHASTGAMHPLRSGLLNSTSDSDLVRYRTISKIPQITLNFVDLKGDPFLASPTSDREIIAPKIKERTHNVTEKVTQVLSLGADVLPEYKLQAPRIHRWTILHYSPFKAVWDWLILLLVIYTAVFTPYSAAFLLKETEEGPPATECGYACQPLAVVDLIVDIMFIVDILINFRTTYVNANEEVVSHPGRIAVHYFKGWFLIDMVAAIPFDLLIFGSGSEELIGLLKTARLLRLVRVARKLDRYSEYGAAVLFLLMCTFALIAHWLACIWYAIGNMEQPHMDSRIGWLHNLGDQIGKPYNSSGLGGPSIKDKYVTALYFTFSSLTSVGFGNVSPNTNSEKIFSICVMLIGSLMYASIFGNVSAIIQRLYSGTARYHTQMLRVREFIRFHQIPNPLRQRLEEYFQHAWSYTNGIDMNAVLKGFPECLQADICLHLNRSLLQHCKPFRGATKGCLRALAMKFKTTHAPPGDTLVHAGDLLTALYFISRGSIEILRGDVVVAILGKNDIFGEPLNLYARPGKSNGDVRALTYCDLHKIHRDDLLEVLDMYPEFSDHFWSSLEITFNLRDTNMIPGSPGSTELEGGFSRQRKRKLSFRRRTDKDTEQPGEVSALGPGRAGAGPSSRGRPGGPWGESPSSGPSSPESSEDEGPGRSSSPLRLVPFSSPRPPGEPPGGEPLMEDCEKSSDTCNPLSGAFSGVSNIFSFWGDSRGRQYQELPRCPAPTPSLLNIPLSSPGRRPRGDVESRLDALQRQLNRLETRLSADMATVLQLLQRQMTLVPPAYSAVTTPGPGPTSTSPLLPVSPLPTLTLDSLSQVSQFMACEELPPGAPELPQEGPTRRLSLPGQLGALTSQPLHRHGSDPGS

# molecule, assayed_target, IC50
rows = [
    ("Nc1ncnc2c1c(-c1cccc(OC[C@@H]3CCCO3)c1F)cn2[C@H]1C[C@@H](CN2CC[S+]([O-])CC2)C1", "UniProt Q12809", "> 30 µM"),
    ("C[C@]1(O)C[C@@H](c2nc(-c3ccc4ccc(-c5ccccc5)nc4c3)c3c(N)nccn32)C1 [Linsitinib, reference compound]", "UniProt Q12809", "2.65 µM"),
    ("[2H]C1([2H])C([2H])([2H])C2(COc3cccc(-c4cn([C@H]5C[C@](O)(CO)C5)c5ncnc(N)c45)c3F)OC1([2H])C([2H])([2H])C2([2H])[2H]", "UniProt Q12809", "> 30 µM"),
    ("[2H]C1([2H])C([2H])([2H])C2(COc3ccc(F)c(-c4cn([C@H]5C[C@@H](N6CCN(C(C)=O)CC6)C5)c5ncnc(N)c45)c3)OC1([2H])C([2H])([2H])C2([2H])[2H]", "UniProt Q12809", "6.8 µM"),
    ("CC(=O)N1CCN([C@H]2C[C@H](n3cc(-c4cc(OC[C@@H]5CCCO5)ccc4F)c4c(N)ncnc43)C2)CC1", "UniProt Q12809", "> 30 µM"),
    ("[2H]C1([2H])C([2H])([2H])C2(COc3cccc(-c4cn([C@H]5C[C@@H](N6CC[S+]([O-])CC6)C5)c5ncnc(N)c45)c3F)OC1([2H])C([2H])([2H])C2([2H])[2H]", "UniProt Q12809", "> 30 µM"),
    ("Nc1ncnc2c1c(-c1cc(OC[C@@H]3CCCO3)ccc1F)cn2[C@H]1C[C@@H](N2CCN(C(=O)CO)CC2)C1", "UniProt Q12809", "> 30 µM"),
    ("Nc1ncnc2c1c(-c1cccc(OC[C@@H]3CCCO3)c1F)cn2C1CC2(CNC(=O)O2)C1 (some centres unmarked)", "UniProt Q12809", "8.7 µM"),
]

Recorded values, source patent US20130338152A1.
